# system_tested: UniProt Q9BY41
# Sequence (Q9BY41 whole entry): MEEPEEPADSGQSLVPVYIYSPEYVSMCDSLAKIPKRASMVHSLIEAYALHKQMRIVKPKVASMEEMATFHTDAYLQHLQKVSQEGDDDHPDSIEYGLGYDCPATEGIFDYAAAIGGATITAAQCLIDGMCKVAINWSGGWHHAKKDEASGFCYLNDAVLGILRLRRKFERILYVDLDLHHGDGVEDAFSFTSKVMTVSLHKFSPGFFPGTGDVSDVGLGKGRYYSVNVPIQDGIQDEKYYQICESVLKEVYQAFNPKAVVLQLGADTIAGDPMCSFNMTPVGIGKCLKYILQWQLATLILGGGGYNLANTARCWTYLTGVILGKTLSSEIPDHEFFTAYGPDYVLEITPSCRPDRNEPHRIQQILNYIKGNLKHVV
# experiment_notes: Inhibition of recombinant HDAC8 (unknown origin) by homogeneous fluorescence release assay

compound	system_tested	IC50 [µM]
O=C(/C=C/c1ccc(NC(=O)C(Cc2ccccc2)c2ccccc2)cn1)NO (stereo unspecified)	UniProt Q9BY41	0.61
